study.target: T1, recombinant His-tagged full-length ERG (UniProt P11308 1-479, biotinylated with NHS-PEG4 biotin for the OctetRED assays)
T1 construct: mature; Baculovirus expression in SF9 cells, Ni-NTA purified; also called wild-type ERG; wtERG; not shown: His tag
T1 sequence (looked up): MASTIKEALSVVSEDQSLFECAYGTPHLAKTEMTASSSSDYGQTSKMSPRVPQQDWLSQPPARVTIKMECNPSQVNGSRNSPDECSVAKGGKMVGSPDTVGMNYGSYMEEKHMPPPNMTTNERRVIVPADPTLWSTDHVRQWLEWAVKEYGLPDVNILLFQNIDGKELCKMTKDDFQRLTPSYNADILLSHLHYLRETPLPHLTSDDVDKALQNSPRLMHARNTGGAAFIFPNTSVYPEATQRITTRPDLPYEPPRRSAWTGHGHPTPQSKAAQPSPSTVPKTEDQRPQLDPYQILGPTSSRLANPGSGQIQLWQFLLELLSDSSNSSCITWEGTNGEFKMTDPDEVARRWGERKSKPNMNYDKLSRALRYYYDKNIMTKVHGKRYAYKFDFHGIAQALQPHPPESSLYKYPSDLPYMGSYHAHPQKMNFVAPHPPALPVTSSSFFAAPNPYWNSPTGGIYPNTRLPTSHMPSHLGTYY
assay.text: OctetRED BLI, biotinylated ERG on streptavidin sensors
result.type: Kd
The reply must contain the numeric value and, after it, the unit.

The reported Kd of the binder LSFGSLP [EIP2 synthetic peptide LSFGSLP] was 1800 nM

The measured Kd associated with LPPYLFT [EIP1 synthetic peptide LPPYLFT] reads 600 nM

Lab note: LTFGSLP [synthetic peptide LTFGSLP] gave Kd of 2900 nM

# Kd of FTFGSLP [synthetic peptide FTFGSLP] = 3900 nM

The reported measurements were obtained from patent US20180273595A1.
